system: RXF 393; test: NCI tumour cell line growth inhibition, 48 h
Active and inactive are the calls of the source. Rule as the data show it: active = GI50 up to about 1.1 µM and inactive = higher.
Assay endpoint: GI50

molecule=Cc1ccc2nc(-c3ccc(-n4c(C)nc(=O)c(-c5ccc(F)cc5)c4C)cc3)sc2c1 assay_system="RXF 393" endpoint_value="9.75 µM (inactive)"
molecule=CN1C(=O)[C@@]2(C=CC3(CC2)OCCO3)c2ccccc21 assay_system="RXF 393" endpoint_value="> 50 µM (inactive)"
molecule=O=c1[nH]nc(-c2ccccc2)n1/N=C/c1c[nH]c2ccccc12 assay_system="RXF 393" endpoint_value="98.4 µM (inactive)"
molecule=COC[C@H](Cc1ccccc1)/N=C/c1ccccc1 assay_system="RXF 393" endpoint_value="> 100 µM (inactive)"
molecule="COc1cc(CC2C(=O)OCC2[C@@H](OC(C)=O)c2ccc3c(c2)OCO3)c(Br)c(OC)c1OC (stereo partly specified)" assay_system="RXF 393" endpoint_value="51.3 µM (inactive)"
molecule="CSc1nc(NC2OCC(O)C(O)C2O)c(N)c(=O)[nH]1 (stereo unspecified)" assay_system="RXF 393" endpoint_value="> 100 µM (inactive)"

----------
system: A549; assay: NCI tumour cell line growth inhibition, 48 h
The source made the active and inactive calls. Rule as the data show it: active = GI50 up to about 1.1 µM and inactive = higher.
Possible outcomes: active, inactive

compound=CCOC(=O)C(=Cc1[nH]c2ccccc2c1-c1c[nH]c2ccccc12)C(=O)OCC assay_system=A549 discrete_label=inactive
compound=c1cc(NC2=NCCO2)c2c(c1)OCO2 assay_system=A549 discrete_label=inactive
compound=O=c1c(Cc2c(O)oc3cc(O)ccc3c2=O)c(O)oc2cc(O)ccc12 assay_system=A549 discrete_label=inactive
compound="C=C1C(C(O)C[C@H](C)C2O[C@@]3(CCCCO3)CCC2C)O[C@@H]2CCC3(CCC(/C=C/[C@@H](C)C4CC(C)=CC5(O4)O[C@H](C[C@](C)(O)C(=O)O)CCC5O)O3)OC2[C@@H]1O (some centres undefined)" assay_system=A549 discrete_label=active
compound="O=C(O)C1CCCN1Cc1c[nH]c2ccccc12 (centres undefined)" assay_system=A549 discrete_label=inactive
compound=CCN(CC)C(=O)N1CN(c2ccccc2)C2(CCN(CCCSc3ccc(F)cc3)CC2)C1=O assay_system=A549 discrete_label=inactive
compound=O=C(N(O)c1ccccc1Cl)C(O)(c1ccccc1)c1ccccc1 assay_system=A549 discrete_label=inactive
compound="CC(=O)OC1OC(c2ccoc2)C[C@@]12C1CCC3O[C@]3(C)[C@]1(C)[C@H](OC(C)=O)[C@H](OC(C)=O)[C@H]2C (some centres undefined)" assay_system=A549 discrete_label=inactive
compound="O=[N+]([O-])c1ccc(C[S+]([O-])Cc2ccccc2)cc1 (centres undefined)" assay_system=A549 discrete_label=inactive

----------
Documented GI50 across a set of compounds
test system: MOLT-4; test: NCI tumour cell line growth inhibition, 48 h
Calls of active or inactive are those of the source. Rule as the data show it: active = GI50 up to about 1.1 µM and inactive = higher.
Assay endpoint: GI50

compound="C#CC(O)/C=C/C(O)CCCC(O)CC#CC(O)C#CC(O)CCCC(O)/C=C/CCCCCC(=O)CCCCCCCCCCCCCC(O)C(O)C#CC(=O)O (stereo unspecified)" endpoint_value="14 µM (inactive)"
compound="O=C(O)C1CCCN1Cc1c[nH]c2ccccc12 (stereo unspecified)" endpoint_value="> 100 µM (inactive)"
compound=COC(=O)c1c(O)c2c(c3c1OC(C)(C)CC3)OC(C)(C)CC2 endpoint_value="22.7 µM (inactive)"
compound=Oc1cc(CN2COc3ccccc32)c(O)cc1CNC1CCCCC1 endpoint_value="8.79 µM (inactive)"
compound="COc1cccc(N2C(=O)CSC2c2cc(OC)c(OC)c(OC)c2)c1 (stereo unspecified)" endpoint_value="29.8 µM (inactive)"
compound=CC1(C)CCC(=O)c2c(O)ccc(O)c21 endpoint_value="41.7 µM (inactive)"
compound="COc1cccc(C2c3cc4c(cc3OC(NNc3ccccc3)C2C)OCO4)c1OC (stereo unspecified)" endpoint_value="2.55 µM (inactive)"
compound=O=C(N/C=C/C=C/Sc1ccccc1)OCc1ccccc1 endpoint_value="15.4 µM (inactive)"
compound=CC(=O)Oc1ccc2c(c1)O/C(=C\c1ccc(O)cc1)C2=O endpoint_value="> 100 µM (inactive)"
compound=Cc1ccc(C(=O)O)cc1NC(=O)c1cc(/C=C/c2ccccc2)[nH]c(=S)n1 endpoint_value="> 100 µM (inactive)"
compound=CCn1c(=O)c2nc(SC)sc2n(-c2ccc(C)cc2)c1=O endpoint_value="> 100 µM (inactive)"
